- Tested System: EPHB1 (UniProt P54762)
- Sequence (P54762 whole entry, looked up): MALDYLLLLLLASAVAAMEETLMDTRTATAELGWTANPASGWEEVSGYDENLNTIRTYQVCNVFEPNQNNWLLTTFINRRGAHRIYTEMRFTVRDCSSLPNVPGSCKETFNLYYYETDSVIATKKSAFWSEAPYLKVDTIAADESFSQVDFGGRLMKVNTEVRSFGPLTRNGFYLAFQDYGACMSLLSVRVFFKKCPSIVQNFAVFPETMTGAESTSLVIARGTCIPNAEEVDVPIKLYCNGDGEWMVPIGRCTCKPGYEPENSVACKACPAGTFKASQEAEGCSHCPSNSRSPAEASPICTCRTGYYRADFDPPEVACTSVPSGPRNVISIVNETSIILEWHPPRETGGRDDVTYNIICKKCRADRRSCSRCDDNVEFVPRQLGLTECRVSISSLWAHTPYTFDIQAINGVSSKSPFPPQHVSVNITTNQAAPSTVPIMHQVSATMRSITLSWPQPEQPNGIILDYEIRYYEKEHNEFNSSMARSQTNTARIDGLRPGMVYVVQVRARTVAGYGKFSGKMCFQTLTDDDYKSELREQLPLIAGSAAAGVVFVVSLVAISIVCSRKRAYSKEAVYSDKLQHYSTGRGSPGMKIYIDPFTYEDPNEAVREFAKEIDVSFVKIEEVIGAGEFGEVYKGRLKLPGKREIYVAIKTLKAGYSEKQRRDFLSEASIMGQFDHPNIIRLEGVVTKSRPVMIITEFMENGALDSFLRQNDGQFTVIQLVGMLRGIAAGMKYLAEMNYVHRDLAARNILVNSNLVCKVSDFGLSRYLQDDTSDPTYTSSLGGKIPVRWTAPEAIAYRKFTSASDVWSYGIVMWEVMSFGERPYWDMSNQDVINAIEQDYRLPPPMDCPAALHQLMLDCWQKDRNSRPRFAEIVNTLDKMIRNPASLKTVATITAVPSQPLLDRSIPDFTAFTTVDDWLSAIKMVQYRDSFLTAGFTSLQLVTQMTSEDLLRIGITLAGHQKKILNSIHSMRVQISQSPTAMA
- Experiment: phosphorylation enrichment, bacterial display (enrichment ratio); higher = better substrate or ligand; peptides without Tyr show the background;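 further: 11-residue human phosphosite peptides and single-mutation variants displayed on the E. coli surface, counted by deep sequencing, each peptide's frequency after selection divided by its frequency in the unselected input library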;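 further: frequency after pTyr selection over input frequency; kinase dosed for 20-30% of maximal phosphorylation in three min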
Recorded measurements of phosphorylation enrichment, one per entry
Measured Attribute: phosphorylation enrichment

{"columns": ["Residue Sequence", "Tested System", "Measured Attribute", "Number"],
 "data": [
  ["AGQEDDDRLRP [RAC1_Y64_Y64D]", "EPHB1 (UniProt P54762)", "phosphorylation enrichment", 0.497],
  ["AVAFLYFKSIG [ADGRL4_Y301_V300L_YF]", "EPHB1 (UniProt P54762)", "phosphorylation enrichment", 0.683],
  ["YSIDHYLGKEM [G6PD_Y202_R198S]", "EPHB1 (UniProt P54762)", "phosphorylation enrichment", 0.509]
]}
